Biological target: human IGF1R (insulin-like growth factor 1 receptor) on cells (human, UniProt P08069 31-1367)
Sequence (P08069 31-1367 limits assumed): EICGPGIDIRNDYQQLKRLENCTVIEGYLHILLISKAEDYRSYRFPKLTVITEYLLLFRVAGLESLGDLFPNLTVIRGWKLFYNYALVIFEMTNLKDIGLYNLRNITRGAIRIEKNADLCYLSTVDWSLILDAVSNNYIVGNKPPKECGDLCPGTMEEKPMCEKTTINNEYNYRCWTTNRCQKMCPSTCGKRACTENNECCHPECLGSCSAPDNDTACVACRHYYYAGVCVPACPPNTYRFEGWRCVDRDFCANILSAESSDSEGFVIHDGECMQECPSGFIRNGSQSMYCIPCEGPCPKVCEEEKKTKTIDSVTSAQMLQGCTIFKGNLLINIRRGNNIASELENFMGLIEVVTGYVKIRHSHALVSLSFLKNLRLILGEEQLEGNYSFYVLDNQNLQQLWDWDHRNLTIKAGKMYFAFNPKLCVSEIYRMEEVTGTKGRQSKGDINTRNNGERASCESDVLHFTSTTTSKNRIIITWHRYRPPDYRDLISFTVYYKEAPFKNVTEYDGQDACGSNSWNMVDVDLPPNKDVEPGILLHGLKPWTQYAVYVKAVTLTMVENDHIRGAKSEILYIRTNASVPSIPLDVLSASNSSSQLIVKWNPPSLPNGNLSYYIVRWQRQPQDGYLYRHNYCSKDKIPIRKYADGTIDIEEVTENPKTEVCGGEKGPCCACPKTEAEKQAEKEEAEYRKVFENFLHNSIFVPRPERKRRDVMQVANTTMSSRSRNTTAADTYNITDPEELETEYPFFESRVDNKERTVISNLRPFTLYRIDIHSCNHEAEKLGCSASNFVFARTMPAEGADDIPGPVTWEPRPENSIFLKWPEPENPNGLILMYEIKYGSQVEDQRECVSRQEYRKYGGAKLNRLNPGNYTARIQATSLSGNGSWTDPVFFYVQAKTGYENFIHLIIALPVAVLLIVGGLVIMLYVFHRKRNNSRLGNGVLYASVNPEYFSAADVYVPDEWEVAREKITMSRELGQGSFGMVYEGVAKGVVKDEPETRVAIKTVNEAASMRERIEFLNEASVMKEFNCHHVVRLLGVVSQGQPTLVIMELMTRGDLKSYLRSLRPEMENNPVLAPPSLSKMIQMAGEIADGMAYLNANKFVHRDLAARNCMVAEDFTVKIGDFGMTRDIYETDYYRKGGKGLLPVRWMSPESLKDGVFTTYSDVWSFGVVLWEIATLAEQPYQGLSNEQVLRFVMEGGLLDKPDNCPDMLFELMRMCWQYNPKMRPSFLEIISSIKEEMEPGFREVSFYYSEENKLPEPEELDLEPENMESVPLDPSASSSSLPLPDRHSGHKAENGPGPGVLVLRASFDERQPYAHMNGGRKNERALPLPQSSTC
Experiment: cell-based or functional assay
Each entry below lists one item and its recorded EC50 of internalization (MFI of pHAb-labelled secondary Fab, NCI-H838 cells) value.
reportedEndpoint: EC50 of internalization (MFI of pHAb-labelled secondary Fab, NCI-H838 cells) (nM)

- anti-IGF1R antibody 12D1 (antibody, human IgG1, V domains shown) VH: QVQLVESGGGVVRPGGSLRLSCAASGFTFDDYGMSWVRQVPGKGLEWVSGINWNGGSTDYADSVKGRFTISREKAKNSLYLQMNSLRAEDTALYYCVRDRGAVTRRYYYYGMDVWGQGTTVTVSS VL: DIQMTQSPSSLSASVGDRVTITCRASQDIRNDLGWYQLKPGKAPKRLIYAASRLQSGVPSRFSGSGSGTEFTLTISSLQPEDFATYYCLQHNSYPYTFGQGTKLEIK: 0.66
- anti-IGF1R antibody 10D1 (antibody, human IgG1, V domains shown) VH: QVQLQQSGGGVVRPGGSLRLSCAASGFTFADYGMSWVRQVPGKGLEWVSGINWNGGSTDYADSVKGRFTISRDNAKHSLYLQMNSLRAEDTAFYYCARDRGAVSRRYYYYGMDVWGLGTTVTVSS VL: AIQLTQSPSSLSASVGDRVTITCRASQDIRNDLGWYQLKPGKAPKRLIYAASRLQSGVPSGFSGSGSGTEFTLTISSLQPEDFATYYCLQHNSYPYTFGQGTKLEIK: 0.51
- anti-IGF1R antibody 10G1 (antibody, human IgG1, V domains shown) VH: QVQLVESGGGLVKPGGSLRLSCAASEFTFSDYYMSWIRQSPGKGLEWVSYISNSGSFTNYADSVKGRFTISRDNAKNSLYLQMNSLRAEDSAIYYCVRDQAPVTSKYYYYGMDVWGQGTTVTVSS VL: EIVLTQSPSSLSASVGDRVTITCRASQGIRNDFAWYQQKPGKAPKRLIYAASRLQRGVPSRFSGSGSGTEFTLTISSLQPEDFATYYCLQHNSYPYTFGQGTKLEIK: 1.12

Cited source for all entries: patent US20260258141A1
